// reported EC50 for each item listed
ASSAYED SYSTEM: NLRP3 (Homo sapiens, UniProt Q96P20)
Sequence (Q96P20 whole entry): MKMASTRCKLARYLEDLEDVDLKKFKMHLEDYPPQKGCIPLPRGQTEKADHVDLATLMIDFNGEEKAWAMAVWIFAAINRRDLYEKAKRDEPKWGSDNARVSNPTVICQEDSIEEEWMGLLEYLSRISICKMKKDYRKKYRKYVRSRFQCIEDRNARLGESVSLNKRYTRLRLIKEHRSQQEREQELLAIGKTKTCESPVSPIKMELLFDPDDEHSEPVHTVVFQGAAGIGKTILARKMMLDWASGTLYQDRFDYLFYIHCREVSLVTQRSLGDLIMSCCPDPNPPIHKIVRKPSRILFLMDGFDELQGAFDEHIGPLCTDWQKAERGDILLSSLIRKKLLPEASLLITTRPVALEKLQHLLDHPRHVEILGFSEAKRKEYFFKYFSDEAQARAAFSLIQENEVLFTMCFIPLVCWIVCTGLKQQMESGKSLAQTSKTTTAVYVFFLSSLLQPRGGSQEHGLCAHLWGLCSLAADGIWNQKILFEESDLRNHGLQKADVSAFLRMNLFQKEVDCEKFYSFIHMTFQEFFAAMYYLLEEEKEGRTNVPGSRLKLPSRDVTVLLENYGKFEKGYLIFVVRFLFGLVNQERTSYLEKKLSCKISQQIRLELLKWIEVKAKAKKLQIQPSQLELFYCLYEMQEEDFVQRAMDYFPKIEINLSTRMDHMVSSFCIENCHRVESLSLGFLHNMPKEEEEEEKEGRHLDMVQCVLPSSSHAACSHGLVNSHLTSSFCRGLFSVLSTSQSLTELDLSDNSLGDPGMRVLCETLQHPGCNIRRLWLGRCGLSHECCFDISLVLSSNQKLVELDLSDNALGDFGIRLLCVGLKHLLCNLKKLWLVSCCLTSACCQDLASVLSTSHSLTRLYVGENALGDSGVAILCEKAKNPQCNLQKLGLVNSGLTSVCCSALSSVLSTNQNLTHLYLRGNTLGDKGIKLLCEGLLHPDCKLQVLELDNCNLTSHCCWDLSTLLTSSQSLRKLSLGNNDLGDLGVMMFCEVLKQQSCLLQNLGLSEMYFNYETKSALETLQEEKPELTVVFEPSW
ASSAY INFO: Measurement of IL-1β production in PMA-differentiated THP-1 cells (NLRP3 hIL1B EC50)
Your answer is read as nM, so omit the unit and give the number.

Worked cases, answers included:
compound="Nc1nc(N[C@H]2C[C@@H]3C[C@H]2[C@@H](O)C3)c2ccc(-c3ccn[nH]3)cc2n1 (single isomer, unassigned) [Example 45B]" readout_type=EC50 obs_value=3000
compound=C=CC12CCC(CNc3cc(N)nc4cc(-c5ccn[nH]5)ccc34)(CC1)CO2 readout_type=EC50 obs_value=2000
compound="Nc1cc(NC2CC3(CC(O)C3)C2)c2ccc(-c3ccn[nH]3)cc2n1 (single isomer, unassigned) [Example 26A]" readout_type=EC50 obs_value=30
compound=Nc1nc(NCC23CC(CO)(C2)C3)c2ccc(-c3ccn[nH]3)cc2n1 readout_type=EC50 obs_value=3960
compound=Nc1nc(NC23CC4CC(CC(O)(C4)C2)C3)c2ccc(-c3cc[nH]n3)cc2n1 readout_type=EC50 obs_value=2110
compound=Nc1nc(NC23CC(C2)C3)c2ccc(-c3cc[nH]n3)cc2n1 readout_type=EC50 obs_value=200
compound="Nc1nc(N[C@@H]2C[C@H]3CC[C@@H]2O3)c2ccc(-c3ccn[nH]3)cc2n1 (racemic)" readout_type=EC50 obs_value=120
compound="Nc1nc(N2CC3CC2CO3)c2ccc(-c3cc[nH]n3)cc2n1 (racemic)" readout_type=EC50 obs_value=680

Problem: Which EC50 reading was recorded for the compound Nc1cc(N[C@H]2[C@@H]3COC[C@@H]32)c2ccc(-c3ccn[nH]3)cc2n1 ?
Solution: 110

Problem: Which EC50 reading was recorded for the compound Nc1cc(OCC23CCC(CC2)OC3)c2ccc(-c3cc[nH]n3)cc2n1 ?
Solution: 320

====

ASSAYED SYSTEM: NLRP3 (Homo sapiens, UniProt Q96P20)
Construct: host or cells: PMA-differentiated THP-1 cells
ASSAY INFO: Measurement of IL-1β production in PMA-differentiated THP-1 cells (NLRP3 hIL1B EC50)
Assay type: cell-based
READOUT TYPE: EC50
Answer with the number, then the unit.

molecule="CCN1CCC2(CCN(c3nc(N)nc4cc(-c5cc[nH]n5)ccc34)C2)C1 (stereo not drawn) [Example 38]" assayed_system="NLRP3 (Homo sapiens, UniProt Q96P20)" readout_type=EC50 obs_value="2580 nM"
molecule="Nc1cc(N[C@H]2C3CCC(C3)[C@H]2CO)c2ccc(-c3ccn[nH]3)cc2n1 (single isomer, unassigned) [Example 18]" assayed_system="NLRP3 (Homo sapiens, UniProt Q96P20)" readout_type=EC50 obs_value="3000 nM"
molecule="Nc1nc(N[C@@H]2[C@@H]3COC[C@@H]32)c2ccc(-c3ccn[nH]3)cc2n1 [Example 6]" assayed_system="NLRP3 (Homo sapiens, UniProt Q96P20)" readout_type=EC50 obs_value="310 nM"

Problem: Need EC50 of Nc1cc(NC23CC(C2)C3)c2ccc(-c3ccn[nH]3)cc2n1 [Example 19] , thanks.
Solution: 320 nM

Problem: Suppose we examine the molecule Nc1cc(NC2CC3(CC(O)C3)C2)c2ccc(-c3ccn[nH]3)cc2n1 (single isomer, unassigned) [Example 26B] ; what EC50 value has been reported?
Solution: 250 nM

Problem: Report EC50 for CC(C)(C)OC(=O)N1CCC2(CC1)CC2Nc1nc(N)nc2cc(-c3cc[nH]n3)ccc12 (racemic) [Example 27] please.
Solution: 390 nM

Values were extracted from patent US12391675B2.
